The entries below are paired with their reported ELISA hCD19 (ratio FMC63).
target or system: T1, human CD19 protein with a biotinylated AviTag (Acrobiosystems) (human, UniProt P15391 20-291, biotinylated AviTag)
T1 construct: Captured on streptavidin-coated microplate wells; also called biotinylated-AviTag-CD19; hCD19; not shown: AviTag
T1 sequence (looked up): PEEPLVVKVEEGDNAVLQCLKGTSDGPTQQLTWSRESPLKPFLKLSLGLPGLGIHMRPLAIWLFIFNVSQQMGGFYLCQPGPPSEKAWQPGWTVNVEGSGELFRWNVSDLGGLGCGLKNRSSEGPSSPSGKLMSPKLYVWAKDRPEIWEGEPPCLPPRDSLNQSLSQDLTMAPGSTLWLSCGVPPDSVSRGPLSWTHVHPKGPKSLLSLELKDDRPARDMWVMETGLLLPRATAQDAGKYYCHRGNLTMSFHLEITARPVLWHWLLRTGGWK
procedure text: phage ELISA, biotinylated AviTag CD19 on streptavidin wells; signal ratio to FMC63 standard
From the text: To identify unique human CD19-binding monoclonal scFv from the panned libraries, individual phage antibody clones were expanded, assessed for binding to CD19 by ELISA, and subjected to nucleotide sequencing to identify those clones that were unique. A total of 84 scFvs were randomly selected from the panned libraries (70 from P3 and 14 from P4).
assay endpoint: ELISA hCD19 (ratio FMC63)

{"binder": "scFv 32 (scFv, Canine scFv (VL-linker-VH); also called P4-11) scFv: QSVLTQPASVSVSLGQTATISCSGESLSKYYAQWFQQKAGQAPVLVIYKDTERPSGIPDRFSGSSSGNTHTLTITGIQAADEADYYCQSYDDNLDGYVFGSGTQLTVLGGGSSRSSSSGGGGSGGGGEVQLVESGGDLVKPGGSLRLSCVGSGFTFSSYWMSWVRQAPGKGLQWIADISDSGSSTDYADAVKGRFTISRDNAKNTLYLQMNSLRAEDTAMYYCARGLGMDYWGHGTSLFVSSASTTAPSVTSGQAGQHHHHHHGAYPYDVPDYAS", "assay endpoint": "ELISA hCD19 (ratio FMC63)", "result": "0.2 ratio to FMC63"}
{"binder": "scFv 9 (scFv, Canine scFv (VL-linker-VH); also called scFv_09; P3-41) scFv: QPVLTQPPSVSAALGQRVTLSCTGSKTNIGSGYDVQWYQQFPGKSPKTIIYGNSNRFSGVPARFSGSKSGSIATLTITGIQAEDEADYYCQSFDDNVDGYVFGSGTQLTILGGGSSRSSSSGGGGSGGGGEVQLVESGGDLVKPGGSLRLSCVASGFTFSSDSIHWVRQAPGKGLQWVAYINSGGSTTYYADAVKGRFTISRDNARNTVYLKMNSLRAEDTAVYYCAKDSGFGSWYLESWGQGTLVTVSPASTTAPSVTSGQAGQHHHHHHGAYPYDVPDYAS", "assay endpoint": "ELISA hCD19 (ratio FMC63)", "result": "0.71 ratio to FMC63"}

All values here come from patent US20240358834A1.
